Target: T1, recombinant human B7-H3 protein with a histidine tag linked to the C terminal (2318-B3/CF, R&D Systems) (human) (UniProt Q5ZPR3)
T1 sequence (looked up): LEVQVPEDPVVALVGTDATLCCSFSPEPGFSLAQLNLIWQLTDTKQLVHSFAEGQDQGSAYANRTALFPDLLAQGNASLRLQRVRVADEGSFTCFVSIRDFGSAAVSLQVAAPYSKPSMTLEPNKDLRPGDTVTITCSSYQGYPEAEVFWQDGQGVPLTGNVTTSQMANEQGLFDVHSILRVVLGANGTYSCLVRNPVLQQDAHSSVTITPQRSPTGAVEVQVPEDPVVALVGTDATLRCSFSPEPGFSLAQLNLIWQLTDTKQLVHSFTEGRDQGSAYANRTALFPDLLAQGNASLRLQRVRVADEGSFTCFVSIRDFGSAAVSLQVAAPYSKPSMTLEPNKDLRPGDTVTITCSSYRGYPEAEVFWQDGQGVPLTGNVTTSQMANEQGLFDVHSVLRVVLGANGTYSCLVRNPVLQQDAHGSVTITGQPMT
Assay: ELISA, soluble scFv on coated B7-H3-His 100 ng per well, anti-HA HRP
# maps each entry to its absorbance at 450 nm
// no unit string in output, number only

Below, each entry is followed by its recorded absorbance at 450 nm result.
INSERT INTO measurements (binder, measured_value) VALUES
  ('anti-B7-H3 scFv clone C4I (soluble monoclonal scFv) (scFv, part only; not given: linker, domain order and HA tag, V domains shown, not shown: another chain or arm of the molecule; small tags and cut ends) VH: EVQLLESGGGLVQPGGSLRLSCAASGFTFSGYYMSWVRQAPGKGLEWVSLISPSSGSIYYADSVKGRFTISRDNSKNTLYLQMNSLRAEDTAVYYCAKGLTKFDYWGQGTLVTVSS VL: QSVLTQPPSASGTPGQRVTISCTGSSSNIGSNDVSWYQQLPGTAPKLLIYANSHRPSGVPDRFSGSKSGTSASLAISGLRSEDEADYYCGSWDDSLSGYVFGGGTKLTVL', 1),
  ('anti-B7-H3 scFv clone D8G M3 (soluble monoclonal scFv) (scFv, part only; not given: linker, domain order and HA tag, V domains shown, not shown: another chain or arm of the molecule; small tags and cut ends) VH: EVQLLESGGGLVQPGGSLRLSCAASGFTFSSYSMSWVRQAPGKGLEWVSGIYSDASNTYYADSVKGRFTISRDNSKNTLYLQMNSLRAEDTAVYYCAKMLHRFDYWGQGTLVTVSS VL: QSVLTQPPSASGTPGQRVTISCSGSSSNIGSNSVTWYQQLPGTAPKLLIYADVQRPSGVPDRFSGSKSGTSASLAISGLRSEDEADYYCGTWDSSLNAYVFGGGTKLTVL', 1),
  ('anti-B7-H3 scFv clone F6V (soluble monoclonal scFv) (scFv, part only; not given: linker, domain order and HA tag, V domains shown, not shown: another chain or arm of the molecule; small tags and cut ends) VH: EVQLLESGGGLVQPGGSLRLSCAASGFTFSDYAMSWVRQAPGKGLEWVSGISPGGSNTYYADSVKGRFTISRDNSKNTLYLQMNSLRAEDTAVYYCAKDAWIARLLLFDYWGQGTLVTVSS VL: QSVLTQPPSASGTPGQRVTISCSGSSSNIGSNAVTWYQQLPGTAPKLLIYYNNKRPSGVPDRFSGSKSGTSASLAISGLRSEDEADYYCGTWDDSLSGYVFGGGTKLTVL', 1);

Record anti-B7-H3 scFv clone B5 (soluble monoclonal scFv) (scFv, part only; not given: linker, domain order and HA tag, V domains shown, not shown: another chain or arm of the molecule; small tags and cut ends) VH: EVQLLESGGGLVQPGGSLRLSCAASGFTFSDYAMSWVRQAPGKGLEWVSSISSGSGSIYYADSVKGRFTISRDNSKNTLYLQMNSLRAEDTAVYYCAKNLIPLDYWGQGTLVTVSS VL: QSVLTQPPSASGTPGQRVTISCSGSSSNIGSNAVSWYQQLPGTAPKLLIYYNSHRPSGVPDRFSGSKSGTSASLAISGLRSEDEADYYCGSWDASLNAYVFGGGTKLTVL , field absorbance at 450 nm: 1
